meta.source: patent US20200392192A1

test system: CEM-SS
recorded endpoint: CC50

Form field: CC50 recorded for Cc1cn([C@H]2C[C@H](N=[N+]=[N-])[C@@H](CO)O2)c(=O)[nH]c1=O with CEM-SS (enter value)
> 1000 nM

* * *

experiment: in vitro
recorded endpoint: CC50

What measured CC50 goes with CC(C)OC(=O)[C@H](C)N[P@](=O)(OC[C@H]1O[C@@H](n2ccc(=O)[nH]c2=O)[C@](C)(F)[C@@H]1O)Oc1ccccc1 ?
> 1000 nM

* * *

tested on: HUH7-ZikaPRVABC59; test: microbe, parasite or virus in culture; format: cell-based; settings: Zika virus
recorded endpoint: EC50 (nM)
Give bare numbers, in nM.

What measured EC50 goes with CC(C)OC(=O)[C@H](C)N[P@](=O)(OC[C@H]1O[C@@H](n2ccc(=O)[nH]c2=O)[C@](C)(F)[C@@H]1O)Oc1ccccc1 [Sofosbuvir] ?
2090
